- assay system: recombinant human HGF (hepatocyte growth factor) (human, UniProt P14210 32-728)
- Sequence (P14210 32-728 limits assumed): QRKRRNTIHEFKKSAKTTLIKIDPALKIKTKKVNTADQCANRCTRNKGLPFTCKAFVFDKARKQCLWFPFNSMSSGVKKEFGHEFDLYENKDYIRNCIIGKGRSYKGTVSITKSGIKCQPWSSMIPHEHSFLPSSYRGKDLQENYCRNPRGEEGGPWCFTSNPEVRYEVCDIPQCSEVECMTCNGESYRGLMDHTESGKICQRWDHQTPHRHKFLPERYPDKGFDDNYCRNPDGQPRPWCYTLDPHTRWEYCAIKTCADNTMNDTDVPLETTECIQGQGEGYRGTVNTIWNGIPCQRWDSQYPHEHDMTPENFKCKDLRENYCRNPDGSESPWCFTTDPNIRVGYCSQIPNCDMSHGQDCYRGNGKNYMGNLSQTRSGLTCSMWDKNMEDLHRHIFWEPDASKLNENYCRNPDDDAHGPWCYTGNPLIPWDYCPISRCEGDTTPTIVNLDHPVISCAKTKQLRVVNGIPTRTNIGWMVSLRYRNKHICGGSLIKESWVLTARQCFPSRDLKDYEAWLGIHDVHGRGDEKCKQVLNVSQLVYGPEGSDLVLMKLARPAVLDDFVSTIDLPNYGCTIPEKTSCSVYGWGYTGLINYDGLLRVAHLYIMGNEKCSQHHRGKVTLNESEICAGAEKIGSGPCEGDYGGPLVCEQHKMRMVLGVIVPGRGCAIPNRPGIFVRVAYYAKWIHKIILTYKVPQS
- procedure text: cell-based or functional assay
quantity kind: IC50 of HGF stimulated c-Met phosphorylation in A549 cells (nM)
Numbers only, in nM.

DARPin #59 (designed binder) MRGSHHHHHHGSDLGKKLLEAARAGQDDEVRILMANGADVNADDSLGLTPLHLAAASGHLEIVEVLLKNGADVNAVDQNSFTPLYLAANNGHLEIVEVLLKNGADVNAFDWHGTTPLHLAAMFGHLEIVEVLLKNGADVNAQDKFGKTAFDISIDNGNEDLAEILQKLN	0.85

Now consider the entry below.
Incoming: # return recorded IC50 of HGF stimulated c-Met phosphorylation in A549 cells for entry DARPin #38 (designed binder) MRGSHHHHHHGSDLGKKLLEAARAGQDDEVRILMANGADVNATDANGFTPLHLAAFYGHLEIVEVLLKYGADVNAYDNFGLTPLHLAASYGHLEIVEVLLKNGADVYAQDKFGKTAFDISIDNGNEDLAEILQKLN
Outgoing: 2.59
